All figures here come from patent US20230399388A1.

Target: T1, KRPPGFSPFR-biotin
T1 construct: also called KD-b; KD-biotin
T1 peptide: KRPPGFSPFR-biotin
Experiment: Biacore, biotin-peptide on SA chip;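 also: purified antibodies injected as twofold dilutions from 0.1 to 10 nM in HBS-EP over streptavidin-captured biotinylated BKR1 or BKR2 ligand peptides, with a random-peptide flow cell as reference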
Ends that are not written are not given here.
RECORDED_METRIC: pKd
Just the number, please; pKd means minus log10 of the concentration in mol/L.

Some solved entries appear below for comparison.
[
  {
    "BINDER": "humanized F151 variant HC2b/LC2a (antibody, human IgG1, V domains shown, also called LC2axHC2b) VH: QIQLVQSGAEVKKPGASVKVSCKASGYSFTDYNIYWVKQSPGKGLEWIGYFDPYNGNTGYNEKFRGKATLTVDKSSSTAYMHLSSLTSEESAVYYCANYYRYDDHAMDYWGQGTSVTVSS VL: DIVMTQSPSSLSASVGDRVTISCKSSQSLLYSSNQKNYLAWYQQKPGKSPKPLIYWASTRESGVPDRFSGSGSGTDFTLTISSVQAEDLATYYCQQYYSYPWTFGGGTKLEIK",
    "pKd": 11.33
  },
  {
    "BINDER": "humanized F151 variant HC1/LC1 (antibody, V domains shown, also called LC1xHC1) VH: EIQLVQSGPEVKKPGASVKVSCKASGYSFTDYNIYWVKQSPGKSLEWIGYFDPYNGNTGYNQKFRGKATLTVDKSSSTAFMHLSSLTSEDSAVYYCANYYRYDDHAMDYWGQGTSVTVSS VL: DIVMSQSPSSLAASVGDRVTMSCKSSQSLLYSSNQKNYLAWYQQKPGKSPKPLIYWASTRESGVPDRFTGSGSGTDFTLTISSVQAEDLAIYYCQQYYSYPWTFGGGTKLEIK",
    "pKd": 12.40
  },
  {
    "BINDER": "humanized F151 variant HC2a/LC2a (antibody, human IgG1, V domains shown, also called LC2axHC2a) VH: QIQLVQSGAEVKKPGASVKVSCKASGYSFTDYNIYWVKQSPGKGLEWIGYFDPYNGNTGYNQKFRGKATLTVDKSSSTAYMHLSSLTSEESAVYYCANYYRYDDHAMDYWGQGTSVTVSS VL: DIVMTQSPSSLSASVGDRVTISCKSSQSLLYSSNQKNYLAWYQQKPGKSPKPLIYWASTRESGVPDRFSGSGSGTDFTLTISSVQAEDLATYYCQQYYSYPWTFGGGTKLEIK",
    "pKd": 11.06
  }
]

Please turn your attention to the following entry.
Q: For humanized F151 variant HC2c/LC2b (antibody, human IgG1, V domains shown, also called LC2bxHC2c) VH: QIQLVQSGAEVKKPGASVKVSCKASGYSFTDYNIYWVKQSPGKGLEWIGYFDPYNGNTGYNQKFRGKATLTVDKSSSTAYMHLSSKTSEESAVYYCANYYRYDDHAMDYWGQGTSVTVSS VL: DIVMTQSPSSLSASVGDRVTISCKSSQSLLYSSNQKNYLAWYQQKPGKSPKPLIYWASTRESGVPDRFSGSGSGTDFTLTISSVQAEDKATYYCQQYYSYPWTFGGGTKLEIK , what is its reported pKd?
Result: 10.76
